- TEST_DESCRIPTION: PSAC antagonists in infected red cells, primary screen, cell-based, P. falciparum Indochina, OD700, 2 h (AID 1155);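 further: lysis reports solute entry through the parasite surface anion channel PSAC; channel blockers reduce lysis of infected cells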
- RUN_PARAMETERS: P. falciparum Indochina infected erythrocytes, osmotic lysis OD700; higher = more signal, called active from +8 up or from −8 down
Each entry gets false if its z-score stays under -0.2, and true if its z-score is -0.2 or above.

COC(=O)[C@@H]1CC[C@H](C)[C@@H](c2ccc(Br)cc2)N1; false
COC(=O)[C@@H]1CC[C@H](C)[C@@H](c2ccc(Br)cc2)N1C[C@@H](O)CN=[N+]=[N-]; false
CCCNC(=O)OC[C@H]1O[C@H](CCON=C[C@@H](C)[C@H](OCc2ccccc2)C(C)C)C=C[C@@H]1Oc1ccc(OC)cc1; false
CCOC(=O)CCN1C(=O)[C@H]2[C@H]3[C@H](O)[C@H](O)CC(=NOCC=C(C)CCC=C(C)C)[C@H]3CC[C@H]2C1=O; true
CCOC(=O)CCN1C(=O)[C@H]2[C@H]3[C@H](O)[C@H](O)CC(=NO[C@@H]4O[C@H](CO)[C@@H](O)[C@H](O)[C@H]4O)[C@@H]3CC[C@H]2C1=O; true

**Query** Identify whether the reported z-score of the following compound is -0.2 or greater: CCCNC(=O)OC[C@H]1O[C@H](CCON=C2c3cc(OC)ccc3O[C@H](c3cccc(OC)c3)[C@H]2O)C=C[C@@H]1Oc1ccc(OC)cc1
**Result** true

**Query** Same thing, different compound: CCN1C(=O)[C@H]2[C@H]3[C@H](O)[C@H](O)CC(=NO[C@H](C)c4cn([C@H](CO)Cc5ccccc5)nn4)[C@@H]3CC[C@H]2C1=O
**Result** true

**Query** C=CC[C@@H]1C=C[C@H](ON=C[C@@H](NS(=O)(=O)c2ccc(C)cc2)[C@H](C)C=CCC(=O)OC)[C@@H](CO)O1 ?
**Result** true

====

- TEST_DESCRIPTION: small-molecule binders of probe aNOTCH3, primary screen, biochemical, small-molecule microarray, 635/667 nm fluorescence (AID 1120);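 further: probe is a biotin-tagged antibody raised against NOTCH3 rather than NOTCH3 protein; score merges spot fluorescence near 667 nm with spot signal to noise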
- RUN_PARAMETERS: higher = more signal
This section presents molecules with their documented composite z-score values.
Just the number, please, no unit after it.

Use the examples below as a reference point.
CC(C)(C)N1C(=O)[C@H]2[C@H]3[C@H](O)[C@H](O)CC(=NOC[C@@H](O)COCc4ccco4)[C@H]3CC[C@H]2C1=O; -0.128
C=CCOCC1CN2[C@@H](CC[C@@H](C)[C@@H]2c2ccc(Br)cc2)C(=O)O1 (stereo not given in full); -0.0932
CC(CCN1CCCc2nc(C)c(C)cc21)=NO[C@H](C)c1cn([C@H](CO)Cc2ccccc2)nn1; 0.159
C#CCCCON=C1[C@H]2CCn3c(=O)n(Cc4cc5c(cc4Cl)OCO5)c(=O)n3[C@H]2[C@H](O)[C@@H]2O[C@H]12; -0.0178
C#CCCCON=C1C[C@@H](O)[C@@H](O)[C@@H]2[C@@H]3C(=O)N([C@@H](C)c4ccccc4)C(=O)[C@@H]3CC[C@@H]12; 0.114

**Query** Would you kindly share the measured composite z-score for O=C1[C@H]2[C@H]3[C@H](O)[C@H](O)CC(=NOC[C@@H](O)COCc4ccco4)[C@@H]3CC[C@H]2C(=O)N1Cc1ccc2c(c1)OCO2 ?
**Result** -0.127

**Query** Consider next the molecule CC(=O)OC[C@H]1O[C@@H](ON=C(C)CCN2CCCCc3nc(C)c(C)cc32)[C@H](OC(C)=O)[C@@H](OC(C)=O)[C@@H]1OC(C)=O in the same way.
**Result** 0.0282

**Query** Subsequent entry: CCN1C(=O)[C@H]2[C@H]3[C@H](O)[C@H](O)CC(=NOCC(C)C)[C@H]3CC[C@H]2C1=O
**Result** 0.108

**Query** Follow-up item: CCOC(=O)NN=C1C[C@@H](O)[C@@H](O)[C@@H]2[C@@H]3C(=O)N(CC)C(=O)[C@@H]3CC[C@H]12
**Result** -0.0879

**Query** What do you have for CCN1C(=O)[C@H]2[C@H]3[C@H](O)[C@H](O)CC(=NNC(=O)OCc4ccccc4)[C@H]3CC[C@H]2C1=O ?
**Result** 0.0145

**Query** Same question, CC(C)[C@@H](OCc1ccccc1)[C@H](C)C=NO[C@H](C)c1cn([C@@H]2COC[C@H]2O)nn1 this time
**Result** 0.307
